B1: NLV2 TCR alpha chain (CDR3α only) (parent)
chain: AGPMKTSYDKVI
partner: NLVGMVATV

Variants of: B1
Assay: T-Switch: Jurkat TCRβ−/− cells expressing a CDR3 saturation-mutagenesis library, stained with two peptide-HLA-A*02:01 tetramers (original and novel peptide) plus anti-CD3, FACS-sorted into four gates, gDNA sequenced
Details: with HLA-A*02:01 with peptide … (NLV 2-2, the original bait), tetramers 1 µg/mL, 30 min on ice, DP and SW gates expanded about 10 days between rounds ('two to three rounds of selection' in the Methods), gate SP: higher = more of the variant in the gate that binds the original peptide and not the novel one = retained original binding. Fold enrichment of the CDR3 variant in one FACS gate of a two-tetra, unresolved parent, parent is a CDR3 fragment, scale: fold enrichment, numbering: sequential-on-construct, sequence …
property.name: enrichment
Numbers only.

Examples from the recorded data:
- mutation.string: "[…] (CDR3 as printed); S7L derived by comparing it with the table's wild-type CDR3 AGPMKTSYDKVI"
  enrichment: 0
- mutation.string: "[…] (CDR3 as printed); D9G derived by comparing it with the table's wild-type CDR3 AGPMKTSYDKVI"
  enrichment: 0
- mutation.string: "[…] (CDR3 as printed); S7N derived by comparing it with the table's wild-type CDR3 AGPMKTSYDKVI"
  enrichment: 0
- mutation.string: "[…] (CDR3 as printed); I12D derived by comparing it with the table's wild-type CDR3 AGPMKTSYDKVI"
  enrichment: 0

Each variant below has a recorded value; state its enrichment.
1. […] (CDR3 as printed); D9T derived by comparing it with the table's wild-type CDR3 AGPMKTSYDKVI
2. […] (CDR3 as printed); P3S derived by comparing it with the table's wild-type CDR3 AGPMKTSYDKVI

[0, 0]

Each variant below has a recorded value; state its enrichment.
1. […] (CDR3 as printed); V11D derived by comparing it with the table's wild-type CDR3 AGPMKTSYDKVI
2. […] (CDR3 as printed); P3F derived by comparing it with the table's wild-type CDR3 AGPMKTSYDKVI
3. […] (CDR3 as printed); A1C derived by comparing it with the table's wild-type CDR3 AGPMKTSYDKVI
4. […] (CDR3 as printed); A1H derived by comparing it with the table's wild-type CDR3 AGPMKTSYDKVI
5. […] (CDR3 as printed); T6V derived by comparing it with the table's wild-type CDR3 AGPMKTSYDKVI

1. 0.11
2. 0
3. 0.571
4. 1.05
5. 22.1

Each variant below has a recorded value; state its enrichment.
1. […] (CDR3 as printed); Y8K derived by comparing it with the table's wild-type CDR3 AGPMKTSYDKVI
2. […] (CDR3 as printed); P3I derived by comparing it with the table's wild-type CDR3 AGPMKTSYDKVI
3. […] (CDR3 as printed); T6K derived by comparing it with the table's wild-type CDR3 AGPMKTSYDKVI
4. […] (CDR3 as printed); T6R derived by comparing it with the table's wild-type CDR3 AGPMKTSYDKVI
5. […] (CDR3 as printed); P3Y derived by comparing it with the table's wild-type CDR3 AGPMKTSYDKVI

[0, 1.59, 0, 0, 0]

The origin of these recorded values is paper PMC13397619.
